# run_description: Example 20 crossover pharmacokinetics of two oral tablet formulations in dogs under fed conditions
# Type: in vivo, beagle dogs
# condition_info: male, beagle, dog, plasma, po, 200 mg, Example 20, fed dogs (high fat diet), 200 mg tablet PO, mean; read-out: AUC0-rt
readout_name: AUC (µg·h/mL)
The reply should be a number in µg·h/mL, with the unit left off.

Query block: AUC for Cc1ccc(S(=O)(=O)O)cc1.Cn1cc(-c2cn(-c3ccc(OC(F)(F)F)cc3)c(=O)c3ncn(C)c23)cn1 [mono-tosylate] ?
Result block: 50.9

====

# run_description: Example 21 crossover pharmacokinetics of mono-tosylate and di-tosylate tablets in fasted dogs
# Assay type: in vivo, beagle dogs
# condition_info: male, beagle, dog, plasma; Example 21, fasted dogs, 200 mg tablet PO, mean; read-out: tmax
readout_name: tmax (h)
Entry rule: numbers only, all in h.

Query block: Form field: reported tmax of Cc1ccc(S(=O)(=O)O)cc1.Cn1cc(-c2cn(-c3ccc(OC(F)(F)F)cc3)c(=O)c3ncn(C)c23)cn1 [mono-tosylate]
Result block: 2

====

# run_description: Example 20 crossover pharmacokinetics of two oral tablet formulations in dogs under fed conditions
# Assay type: in vivo, beagle dogs
# condition_info: male, beagle, dog, plasma, po, 200 mg/tablet/dog, Example 20, fed dogs, 200 mg tablet PO, mean; LLOQ 20 ng/mL; read-out: Plasma concentration of Compound I at 36 hours
readout_name: concentration at 36 h
Respond with a number, then the unit of measure.

Query block: Give the measured concentration at 36 h of Cc1ccc(S(=O)(=O)O)cc1.Cn1cc(-c2cn(-c3ccc(OC(F)(F)F)cc3)c(=O)c3ncn(C)c23)cn1 [mono-tosylate] .
Result block: 79.7 ng/mL

====

# run_description: Example 20 crossover pharmacokinetics of two oral tablet formulations in dogs under fed conditions
# Format: in vivo, beagle dogs
# condition_info: male, beagle, dog, plasma, po, 200 mg/tablet/dog, Example 20, fed dogs, 200 mg tablet PO, mean; LLOQ 20 ng/mL; read-out: Plasma concentration of Compound I at 2 hours
readout_name: concentration at 2 h (ng/mL)
// note: answer is a bare numeric in ng/mL

Query block: Given Cc1ccc(S(=O)(=O)O)cc1.Cn1cc(-c2cn(-c3ccc(OC(F)(F)F)cc3)c(=O)c3ncn(C)c23)cn1 [mono-tosylate] , state its recorded concentration at 2 h.
Result block: 4580

====

# run_description: Example 21 crossover pharmacokinetics of mono-tosylate and di-tosylate tablets in fasted dogs
# Format: in vivo, beagle dogs
# condition_info: male, beagle, dog, plasma, po, 200 mg/tablet per dog, Example 21, fasted dogs, 200 mg tablet PO, mean; LLOQ 20 ng/mL; read-out: Plasma concentration of Compound I at 0.5 hours
readout_name: concentration at 0.5 h
Answer format reminder: number followed by unit.

Query block: Return reported concentration at 0.5 h; argument: Cc1ccc(S(=O)(=O)O)cc1.Cn1cc(-c2cn(-c3ccc(OC(F)(F)F)cc3)c(=O)c3ncn(C)c23)cn1 [mono-tosylate]
Result block: 1910 ng/mL

====

# run_description: Example 19 crossover pharmacokinetics of four oral tablet formulations in fasted dogs
# Type: in vivo, beagle dogs
# condition_info: male, beagle, dog, plasma, po, 200 mg, Example 19, fasted dogs, 200 mg tablet PO, mean; read-out: Cmax
readout_name: Cmax (ng/mL)
Write down the numeric answer in ng/mL and omit the unit.

Query block: Fill blank: measured Cmax of the compound Cc1ccc(S(=O)(=O)O)cc1.Cn1cc(-c2cn(-c3ccc(OC(F)(F)F)cc3)c(=O)c3ncn(C)c23)cn1 [mono-tosylate] is ____.
Result block: 8100
